- measurement.protocol: Subcutaneous xenograft model in athymic mice, A431
- Format: in vivo, human
- condition: mouse, in vivo, 100 mg/kg/day; 100 mg/kg/d IP daily in DMSO

mol	unit.label	mortality
Cc1[nH]c(C=C2C(=O)Nc3ccccc32)c(C)c1CCC(=O)O	%	12.5

====

- measurement.protocol: in vivo
- condition: mouse, in vivo, ip, 75 mg/kg/day

mol	mortality, %
Cc1[nH]c(C=C2C(=O)Nc3ccccc32)c(C)c1CCC(=O)O	0
